test system: MOLT-4 leukemia; assay: NCI tumour cell line growth inhibition, 48 h
attribute measured: GI50

> print(dat)
                                   compound   assayed.system  test.result
1  Fc1ccc(NC(c2ccc(F)cc2)C2CCN(CCCCc3ccccc3)CC2)cc1 (stereo not drawn)  MOLT-4 leukemia      1.74 µM
2         CCc1ccc(Nc2cc(C)c3ccc(O)cc3n2)cc1  MOLT-4 leukemia       3.6 µM
3  C=CCN(CC=C)C(=O)c1cc(C)nc2c1c(=O)n(-c1ccccc1)c(=O)n2CCCN1CCN(c2ccccc2OC)CC1  MOLT-4 leukemia      > 50 µM

====

test system: NCI-H522 lung; experiment: NCI tumour cell line growth inhibition, 48 h

structure notation	GI50
CC(=O)Oc1c(C(=O)[O-])cc(C(C)C)cc1C(C)C.CC(=O)Oc1c(C(=O)[O-])cc(C(C)C)cc1C(C)C.CC(=O)Oc1c(C(=O)[O-])cc(C(C)C)cc1C(C)C.CC(=O)Oc1c(C(=O)[O-])cc(C(C)C)cc1C(C)C.[Cu+2].[Cu+2]	18.5 µM
OCC1CC[N-]CC1.OCC1CC[N-]CC1.[Cl][Pt+2]([Cl])([Cl])[Cl]	9.53 µM
COCCN(Cc1ccc(F)cc1)c1ccc(CO)c(Cl)c1	39.1 µM
C(=Nc1nc(SCc2ccccc2)nc2[nH]ncc12)c1cccs1	59.2 µM

====

A collection of molecules and their measured TGI
tested on: SK-MEL-2 melanoma; experiment: NCI tumour cell line growth inhibition, 48 h
attribute measured: TGI (µM)

molecule	assayed system	attribute measured	comparison operator	test result
O=C(COc1ccc(/C=C2\Oc3ccccc3C2=O)cc1)Nc1nc2ccccc2s1	SK-MEL-2 melanoma	TGI	>	68.6
C1CCC(N=C2N(C3CCCCC3)C(=NC3CCCCC3)N2C2CCCCC2)CC1	SK-MEL-2 melanoma	TGI	>	100
C#Cc1ccc(-n2c(/C=C/c3ccc(O)cc3)nc3ncccc3c2=O)cc1	SK-MEL-2 melanoma	TGI	=	40.7
OCC1CC[N-]CC1.OCC1CC[N-]CC1.[Cl][Pt+2]([Cl])([Cl])[Cl]	SK-MEL-2 melanoma	TGI	=	67.3
COC(=O)[C@@]12OC[C@]34C([C@@H](O)C1O)[C@@]1(C)CC(=O)C(OC(=O)CC(C)C(F)(F)F)=C(C)C1C[C@H]3OC(=O)[C@H](O)[C@H]42 (stereo not given in full)	SK-MEL-2 melanoma	TGI	=	15.5
O=C(NCCc1ccccc1)C1C(=O)C(=O)N(CCc2ccccc2)C1=O (stereo not given)	SK-MEL-2 melanoma	TGI	>	100
COc1ccc(-c2[nH]c3ccc(OC)cc3c2C=C(C#N)C#N)cc1	SK-MEL-2 melanoma	TGI	>	100
COc1ccc2ccccc2c1C1=NC(C)(C)CO1	SK-MEL-2 melanoma	TGI	>	100
Cc1nc2sc3cccc(Cl)c3n2c(=O)c1N=Nc1ccc(Cl)cc1	SK-MEL-2 melanoma	TGI	>	100
CN1CCN(c2c(F)cc(NC3=C(Cl)C(=O)c4ncccc4C3=O)cc2F)CC1	SK-MEL-2 melanoma	TGI	=	28

====

system: UO-31 renal; assay: NCI tumour cell line growth inhibition, 48 h
attribute measured: TGI

> print(dat)
                                   compound  attribute.measured  test.result
1            COc1ccc2ccccc2c1C1=NC(C)(C)CO1                 TGI     > 100 µM
2  O=C(O)CN(CCN(CC(=O)O)CC(=O)O)CC(=O)O.[Mn+2]                 TGI     > 100 µM
3  CCCC(=O)CC(C)C(=O)C(=O)NC12CC3CC(CC(C3)C1)C2 (stereo not drawn)                 TGI     > 100 µM
4   CCc1cccc(CC)c1NC(=O)/C(Cl)=C(/Cl)C(=O)O                 TGI      47.3 µM
5  CC(=O)Oc1ccc(C2=Cc3ccc(OC(C)=O)cc3OC2C)cc1 (stereo not drawn)                 TGI      6.65 µM
6         CSc1nncc(-c2cc3c(c(SC)n2)CCCC3)n1                 TGI     > 100 µM
7  COc1cc(/C=C/c2cc(/C=C/c3ccc(O)c(OC)c3)n(C(=O)c3ccccc3Br)n2)ccc1O                 TGI      34.1 µM
8  Cc1cccc2sc(NC(=O)NS(=O)(=O)n3cnc4ccccc43)nc12                 TGI      61.5 µM
